Sourced from ChEMBL document CHEMBL4118126

Target: Mitogen-activated protein kinase 8 (Homo sapiens, UniProt P45983)
Sequence (P45983 whole entry): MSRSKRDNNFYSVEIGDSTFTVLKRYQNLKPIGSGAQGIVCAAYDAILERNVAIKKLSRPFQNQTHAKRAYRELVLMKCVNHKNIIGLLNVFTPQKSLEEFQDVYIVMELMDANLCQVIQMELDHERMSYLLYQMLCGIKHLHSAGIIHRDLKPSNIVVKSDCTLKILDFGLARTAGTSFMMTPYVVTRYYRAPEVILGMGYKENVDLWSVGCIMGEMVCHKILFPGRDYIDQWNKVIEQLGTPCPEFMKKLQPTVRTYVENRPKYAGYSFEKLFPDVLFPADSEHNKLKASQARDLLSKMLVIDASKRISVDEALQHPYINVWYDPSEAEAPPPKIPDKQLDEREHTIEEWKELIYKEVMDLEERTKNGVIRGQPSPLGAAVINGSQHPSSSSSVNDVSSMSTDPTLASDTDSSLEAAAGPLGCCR
Assay: Inhibition of JNK1 (unknown origin)
PROPERTY: IC50 (µM)

MOLECULAR STRING	TARGET SYSTEM	MODIFIER	NUMERIC RESULT
Cc1ccc(CN2CCOCC2)cc1-c1cc2c(-c3ccc(C#N)c(C(C)C)c3)ccnc2[nH]1	Mitogen-activated protein kinase 8 (Homo sapiens, UniProt P45983)	=	7.94
CS(=O)(=O)Nc1cccc(-c2cc3c(-c4ccc(C(N)=O)cc4)ccnc3[nH]2)c1	Mitogen-activated protein kinase 8 (Homo sapiens, UniProt P45983)	=	0.2
COc1ccccc1-c1cc2c(-c3ccc(C(N)=O)cc3)ccnc2[nH]1	Mitogen-activated protein kinase 8 (Homo sapiens, UniProt P45983)	=	0.158
COc1ccc(-c2ccccc2)cc1Nc1nccc(-c2ccc(C(N)=O)cc2)n1	Mitogen-activated protein kinase 8 (Homo sapiens, UniProt P45983)	>	10
Cc1c(CN2CCOCC2)cccc1-c1cc2c(-c3ccc(C(N)=O)cc3)ccnc2[nH]1	Mitogen-activated protein kinase 8 (Homo sapiens, UniProt P45983)	=	0.316
Cc1c(OCCN2CCOCC2)cccc1-c1cc2c(-c3ccc(C(N)=O)cc3)ccnc2[nH]1	Mitogen-activated protein kinase 8 (Homo sapiens, UniProt P45983)	=	0.251
COc1ccccc1Nc1nccc(-c2ccc(C(=O)O)cc2)n1	Mitogen-activated protein kinase 8 (Homo sapiens, UniProt P45983)	=	5.01
Cc1cc(OCCN2CCOCC2)ccc1-c1cc2c(-c3ccc(C#N)cc3)ccnc2[nH]1	Mitogen-activated protein kinase 8 (Homo sapiens, UniProt P45983)	=	20
Cc1ccc(CN2CCOCC2)cc1-c1cc2c(-c3ccc(C#N)cc3)ccnc2[nH]1	Mitogen-activated protein kinase 8 (Homo sapiens, UniProt P45983)	>	10
NC(=O)c1ccc(-c2ccnc(Nc3cccc(-c4ccccc4)c3)n2)cc1	Mitogen-activated protein kinase 8 (Homo sapiens, UniProt P45983)	=	1

* * *

pIC50 values, listed per item
Molecular target: Phosphatidylinositol 4,5-bisphosphate 3-kinase catalytic subunit gamma isoform (Homo sapiens, UniProt P48736)
Sequence (P48736 whole entry, canonical isoform): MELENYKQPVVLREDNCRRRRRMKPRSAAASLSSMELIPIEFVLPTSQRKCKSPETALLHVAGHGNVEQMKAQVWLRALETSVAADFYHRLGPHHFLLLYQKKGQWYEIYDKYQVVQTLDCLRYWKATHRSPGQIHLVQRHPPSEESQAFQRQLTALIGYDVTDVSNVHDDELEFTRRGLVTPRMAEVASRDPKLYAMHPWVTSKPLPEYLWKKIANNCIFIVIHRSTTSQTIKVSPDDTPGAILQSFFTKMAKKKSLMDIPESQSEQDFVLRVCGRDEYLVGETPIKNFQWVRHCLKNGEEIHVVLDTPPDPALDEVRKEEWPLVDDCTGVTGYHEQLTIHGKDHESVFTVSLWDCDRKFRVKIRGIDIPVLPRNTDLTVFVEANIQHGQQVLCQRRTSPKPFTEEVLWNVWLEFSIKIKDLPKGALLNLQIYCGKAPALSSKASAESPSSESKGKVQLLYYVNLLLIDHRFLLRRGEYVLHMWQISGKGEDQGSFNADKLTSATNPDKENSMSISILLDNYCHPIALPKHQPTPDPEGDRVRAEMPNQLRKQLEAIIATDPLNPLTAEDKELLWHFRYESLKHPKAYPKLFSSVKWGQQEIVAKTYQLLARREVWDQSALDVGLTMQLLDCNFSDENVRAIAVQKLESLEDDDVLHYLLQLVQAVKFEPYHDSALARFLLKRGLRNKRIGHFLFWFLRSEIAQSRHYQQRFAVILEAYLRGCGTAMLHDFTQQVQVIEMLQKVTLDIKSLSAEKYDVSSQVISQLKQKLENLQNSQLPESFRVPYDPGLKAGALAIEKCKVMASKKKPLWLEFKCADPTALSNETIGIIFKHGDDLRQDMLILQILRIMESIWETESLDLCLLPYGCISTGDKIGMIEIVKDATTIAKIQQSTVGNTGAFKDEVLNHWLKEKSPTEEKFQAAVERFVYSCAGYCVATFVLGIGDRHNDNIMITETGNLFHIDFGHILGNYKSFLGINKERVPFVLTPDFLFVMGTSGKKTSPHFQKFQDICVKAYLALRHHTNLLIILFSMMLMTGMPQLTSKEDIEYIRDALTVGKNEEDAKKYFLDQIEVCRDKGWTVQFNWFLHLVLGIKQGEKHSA
Assay: Inhibition of PI3Kgamma (unknown origin)
pIC50: −log10 of the molar value.
PROPERTY: pIC50

MOLECULAR STRING	MODIFIER	NUMERIC RESULT
COc1ccccc1Nc1ncc(F)c(-c2ccc(C(=O)O)c(C(C)C)c2)n1	=	5.20
COc1ccccc1Nc1nccc(-c2ccc(C(=O)O)c(C(C)C)c2)n1	=	5.80
NC(=O)c1ccc(-c2ccnc(Nc3cccc(-c4ccccc4)c3)n2)cc1	=	7.00
Cc1ccc(-c2ccccc2)cc1Nc1nccc(-c2ccc(C(N)=O)cc2)n1	<	5.00
COc1ccccc1Nc1nccc(-c2ccc(C(N)=O)c(C(C)C)c2)n1	=	5.60
COc1ccccc1Nc1ncc(F)c(-c2ccc(C(N)=O)c(C(C)C)c2)n1	<	5.00
COc1ccccc1Nc1nccc(-c2ccc(C(N)=O)cc2)n1	<	5.00
COc1ccccc1Nc1ncc(Cl)c(-c2ccc(C(N)=O)c(C(C)C)c2)n1	=	5.20
O=C(O)c1ccc(-c2ccnc(Nc3cccc(-c4ccccc4)c3)n2)cc1	=	7.90
COc1ccc(-c2ccccc2)cc1Nc1nccc(-c2ccc(C(N)=O)cc2)n1	=	5.10
NC(=O)c1ccc(-c2ccnc(Nc3cc(-c4ccccc4)ccc3F)n2)cc1	<	5.00
COc1ccccc1Nc1nccc(-c2ccc(C(=O)O)cc2)n1	=	5.40
